- Test system: PC-3 prostate
- Assay info: NCI tumour cell line growth inhibition, 48 h
Observed property: GI50

- COc1ccc(/C=C(/C(=O)N2CCCC2)c2cc(OC)c(OC)c(OC)c2)cc1N: 2.1 µM
- COc1cc2c3c(n(CCN)c(=O)c2cc1OC)-c1cc2c(cc1C3=O)OCO2: 0.671 µM
- O=C1c2ccccc2S(=O)(=O)N1CSC(=S)N1CCCC1: 7.62 µM
- COc1ccc2cc(C(=O)/C=C/c3cccc(Cl)c3Cl)ccc2c1: 12.4 µM

Please find the next compound below.
[ask] Kindly state the measured GI50 obtained for CC(C)(C)OC(=O)NCCCCCCCCn1c2c(c3ccccc3c1=O)C(=O)c1ccccc1-2 with PC-3 prostate.
[reply] > 50 µM

These data points were gathered from PubChem BioAssay (NCI).
